Target: Human Testicular C17,20-lyase (Homo sapiens)
Construct: incubating human testicular microsomes; from tissue; host or cells: human testis, microsomes
Sequence (P05093 whole entry): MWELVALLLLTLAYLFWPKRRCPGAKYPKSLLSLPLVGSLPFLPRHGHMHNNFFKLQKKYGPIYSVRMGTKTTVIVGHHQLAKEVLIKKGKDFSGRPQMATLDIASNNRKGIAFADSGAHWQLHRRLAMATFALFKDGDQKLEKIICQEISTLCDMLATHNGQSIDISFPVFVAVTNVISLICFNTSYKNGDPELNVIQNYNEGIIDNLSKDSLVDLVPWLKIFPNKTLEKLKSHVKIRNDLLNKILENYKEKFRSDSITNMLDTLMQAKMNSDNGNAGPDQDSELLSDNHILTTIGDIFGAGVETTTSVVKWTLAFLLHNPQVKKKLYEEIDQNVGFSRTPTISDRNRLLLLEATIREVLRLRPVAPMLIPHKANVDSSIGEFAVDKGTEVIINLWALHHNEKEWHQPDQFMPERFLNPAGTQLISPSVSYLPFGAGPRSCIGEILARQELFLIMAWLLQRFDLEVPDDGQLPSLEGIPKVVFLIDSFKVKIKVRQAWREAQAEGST
Assay: Inhibition of human testicular C17,20-lyase (pregnenolone substrate, testicular microsomes)
Format: biochemical
Settings: IC50 C17,20 lyase
pIC50: −log10 of the molar value.

Compound	Measurement target	pIC50
C[C@@H](O)[C@H]1CC[C@H]2[C@@H]3CC=C4C[C@@H](O)CC[C@]4(C)[C@H]3CC[C@]12C [Compound I-20]	Human Testicular C17,20-lyase (Homo sapiens)	6.72
CC(=O)C1=CC[C@H]2[C@@H]3CCC4=CC(=O)CC[C@]4(C)[C@H]3CC[C@]12C [Compound L-13, 16-dehydroprogesterone]	Human Testicular C17,20-lyase (Homo sapiens)	7.62
C[C@H](O)[C@H]1CC[C@H]2[C@@H]3CCC4=CC(=O)CC[C@]4(C)[C@H]3CC[C@]12C [Compound I-33]	Human Testicular C17,20-lyase (Homo sapiens)	5.84
CC(=NO)C1=CC[C@H]2[C@@H]3CC=C4C[C@@H](O)CC[C@]4(C)[C@H]3CC[C@]12C [Compound I-5, 16-dehydropregnenolone-20-oxime]	Human Testicular C17,20-lyase (Homo sapiens)	7.80
C[C@H](O)[C@H]1CC[C@H]2[C@@H]3CC=C4C[C@@H](O)CC[C@]4(C)[C@H]3CC[C@]12C [Compound I-19]	Human Testicular C17,20-lyase (Homo sapiens)	6.29

Entry source: patent US5994334A
